molecular target: VirD (Streptomyces virginiae); test: other fluorescence titration; tryptophan fluorescence quenching; VirC, VirD, VirD mutant or VirE at 5 μM in TE buffer (20 mM Tris-HCl pH 8.5, 2 mM EDTA), 25 °C, titrated with ACP ligand (0–150 μM); excitation 295 nm; one site-specific binding model; averaged data of two independent measurements
As shown below, each of these binders has a reported log10 of Kd value.
The figures below represent log10 of Kd, where Kd is stated in µM.

INSERT INTO measurements (binder, outcome_measure, readout_number) VALUES
  ('apo-ACP5a (domain or fragment) GPGSAGRQEEIAEEVARLLAGVLYLEPDRLDPEETFLTLGVDSILGVEFVAAVNAAYPVGVKATALYDHPTPAAFARHIAESLGA', 'log10 of Kd', 2.01);

From here, focus on the item given below.
Enquiry: Field request: log10 of Kd | item: holo-ACP5a L6764N (domain or fragment, phosphopantetheine (holo form)) GPGSAGRQEEIAEEVARLLAGVLYLEPDRLDPEETFNTLGVDSILGVEFVAAVNAAYPVGVKATALYDHPTPAAFARHIAESLGA
Return: 0.61
